Exercise: for every item that follows, state its recorded Binding Data 2.
Target: CD40 immobilized on microassay plates (UniProt P25942 21-193, limits assumed)
Sequence (P25942 21-193 limits assumed): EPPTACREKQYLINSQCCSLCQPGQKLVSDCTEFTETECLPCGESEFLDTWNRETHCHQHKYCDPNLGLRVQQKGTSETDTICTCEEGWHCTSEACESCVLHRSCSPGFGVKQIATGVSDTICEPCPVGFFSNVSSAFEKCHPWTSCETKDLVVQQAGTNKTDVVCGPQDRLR
Test: serially diluted antibody on CD40 immobilized on microassay plates
Protocol: Antibodies constructed using these variant light and heavy chain variable domains were analyzed for binding activity. Each antibody was diluted to equivalent concentrations, and then serially diluted. The diluted antibodies were assayed for binding to CD40 immobilized on microassay plates.
Number, no unit, nothing else.

Noted for hu sgn-17 (antibody, V domains shown) VH: EVQLVESGGGLVQPGGSLRLSCAASGYSFTGYYIHWVRQAPGKGLEWVARVIPNNGGTSYNQKFKGRATLSVDNSKNTAYLQMNSLRAEDTAVYYCAREGIYWWGQGTLVTVS VL: DVQVTQSPSSLSASVGDRVTITCRSSQSLVHSNGNTFLHWYQQKPGKAPKLLIYTVSNRFSGVPSRFSGSGSGTDFTLTISSLQPEDFATYYCSQTTHVPWTFGQGTKVEIKR : its Binding Data 2 reads 3.56

Noted for hu sgn-2 (antibody, V domains shown) VH: EVQLVESGGGLVQPGGSLRLSCAASGYSFTGYYIHWVRQAPGKGLEWVARVIPNNGGTSYNQKFKGRFTISRDKSKNTLYLQMNSLRAEDTAVYYCAREGIYWWGQGTLVTVS VL: DIQMTQSPSSLSASVGDRVTITCRSSQSLVHSNGNTFLHWYQQKPGKAPKLLIYTVSNRFSGVPSRFSGSGSGTDFTLTISSLQPEDFATYYCSQTTHVPWTFGQGTKVEIKR : its Binding Data 2 reads 371

Noted for hu sgn-22 (antibody, V domains shown) VH: EVQLVESGGGLVQPGGSLRLSCAASGYSFTGYYIHWVRQAPGKGLEWVARVIPNAGGTSYNQKFKGRFTLSVDNSKNTAYLQMNSLRAEDTAVYYCAREGIYWWGQGTLVTVS VL: DIQMTQSPSSLSASVGDRVTITCRSSQSLVHSNGNTFLHWYQQKPGKAPKLLIYTVSNRFSGVPSRFSGSGSGTDFTLTISSLQPEDFATYYCSQTTHVPWTFGQGTKVEIKR : its Binding Data 2 reads 0.84
